Form field: GI50 (one value per entry).
# target_or_system: Ba/F3-ERBB2-A775_G776insYVMA cells (Homo sapiens, UniProt P04626, DUP772-775, cells depend on it)
# Sequence (P04626 with tags, fused parts or gaps DUP772-775): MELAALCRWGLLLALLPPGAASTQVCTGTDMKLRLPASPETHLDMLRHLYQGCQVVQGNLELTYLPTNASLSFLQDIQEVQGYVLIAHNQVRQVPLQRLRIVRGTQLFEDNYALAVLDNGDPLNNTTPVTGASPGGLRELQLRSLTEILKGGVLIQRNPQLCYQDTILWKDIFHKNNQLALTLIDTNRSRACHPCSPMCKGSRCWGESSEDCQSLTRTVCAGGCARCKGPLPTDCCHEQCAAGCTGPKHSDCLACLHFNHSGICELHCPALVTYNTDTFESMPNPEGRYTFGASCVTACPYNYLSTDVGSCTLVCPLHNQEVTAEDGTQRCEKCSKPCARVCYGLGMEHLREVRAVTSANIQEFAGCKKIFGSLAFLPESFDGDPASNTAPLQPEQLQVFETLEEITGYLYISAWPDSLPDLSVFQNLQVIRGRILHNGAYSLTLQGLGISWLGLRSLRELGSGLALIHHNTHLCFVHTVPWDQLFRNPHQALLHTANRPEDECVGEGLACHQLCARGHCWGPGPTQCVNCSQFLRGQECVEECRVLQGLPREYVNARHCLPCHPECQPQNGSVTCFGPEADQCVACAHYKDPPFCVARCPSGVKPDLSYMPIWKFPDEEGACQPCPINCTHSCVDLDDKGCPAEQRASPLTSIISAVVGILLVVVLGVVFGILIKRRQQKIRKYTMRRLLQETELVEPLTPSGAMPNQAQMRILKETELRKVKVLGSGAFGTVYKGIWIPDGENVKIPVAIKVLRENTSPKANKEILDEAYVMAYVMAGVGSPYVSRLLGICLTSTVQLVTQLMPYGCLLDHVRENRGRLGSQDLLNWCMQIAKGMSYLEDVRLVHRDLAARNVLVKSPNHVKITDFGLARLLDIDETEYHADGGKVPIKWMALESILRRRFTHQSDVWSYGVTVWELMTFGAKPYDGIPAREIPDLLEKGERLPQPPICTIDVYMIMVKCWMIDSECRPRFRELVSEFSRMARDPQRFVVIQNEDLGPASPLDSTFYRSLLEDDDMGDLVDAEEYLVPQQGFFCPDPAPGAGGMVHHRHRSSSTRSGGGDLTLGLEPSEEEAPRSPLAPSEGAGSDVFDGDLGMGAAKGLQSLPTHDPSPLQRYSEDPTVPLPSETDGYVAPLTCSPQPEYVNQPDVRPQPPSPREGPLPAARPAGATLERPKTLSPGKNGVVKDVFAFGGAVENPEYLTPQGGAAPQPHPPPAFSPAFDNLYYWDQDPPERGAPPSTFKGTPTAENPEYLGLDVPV
# test_protocol: Ba/F3 cell survival assay, ERBB2 A775_G776insYVMA
# Type: cell-based
# measurement_setup: Table 9; read-out: BA/F3 (ERBB2 A775_G776 insYVMA) IC50
// return numeric value only (unit: nM, not printed)

Solved cases (5 shown):
* COCC(C)Oc1cnccc1-c1[nH]c2c(c1Nc1cccc(Cl)c1OC)C(=O)N[C@@H]1CCC[C@H]21 (single isomer, unassigned) | 15.2
* Cc1c(Cl)cccc1Nc1c(-c2ccncc2OCC2COCCO2)[nH]c2c1C(=O)NCC2C (single isomer, unassigned) | 29.2
* COc1c(Cl)cccc1Nc1c(-c2ccncc2OC[C@@H]2CCCO2)[nH]c2c1C(=O)NC1(CC1)C2 | 22.2
* COc1c(Cl)cccc1Nc1c(-c2ccncc2OCCC2CCCCO2)[nH]c2c1C(=O)N[C@H](C)C2 (single isomer, unassigned) | 16.2
* COc1c(Cl)cccc1Nc1c(-c2ccncc2OCCC(C)OC)[nH]c2c1C(=O)N[C@H](C)C2 (single isomer, unassigned) | 12.8

COc1c(Cl)cccc1Nc1c(-c2ccncc2OCC2COCCO2)[nH]c2c1C(=O)NCC2C (single isomer, unassigned) yielded GI50 of 33.1
